# Test system: Cells containing hepatitis C virus (HCV) replicon
# assay.method.text: HCV replicon cell assay
# Type: cell-based
# experimental.parameters: 48 h, read-out: (concentration at which 50% inhibition of HCV RNA level is observed)
parameter.measured: IC50 (nM)
Answer in nM, number only, no unit symbol.

Input: Dear colleague, I am looking for the recorded IC50 of the following compound: CCC[C@H](NC(=O)[C@@H]1[C@H]2CCC[C@H]2CN1C(=O)[C@@H](NC(=O)[C@@H](NC(=O)c1cnccn1)C1CCCCC1)C(C)(C)C)C(=O)C(=O)NC1CC1 [VX-950]
Output: 354

* * *

# system: HCV NS3 protease genotype 2a (Hepatitis C virus genotype 2a, UniProt P26660, L1043K/T1046A/V1183I)
# Construct: DNA fragment encoding residues Ala^1-Ser^181 of several isolates of genotype 2a or 2b; hexa-histidine (C); made in house; host or cells: E. coli BL21/DE3 pLysS
# Sequence (P26660 1031-1211, looked up, stated change not applied, other chains not shown): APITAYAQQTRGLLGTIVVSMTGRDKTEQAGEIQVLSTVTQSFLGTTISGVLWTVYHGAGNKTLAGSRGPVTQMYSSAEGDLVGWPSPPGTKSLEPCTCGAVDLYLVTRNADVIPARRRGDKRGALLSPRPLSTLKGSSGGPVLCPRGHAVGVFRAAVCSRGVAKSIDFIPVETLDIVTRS
# assay.method.text: Fluorescence peptide assay, potency with extended incubation
# Format: biochemical
# experimental.parameters: IC50 after extended preincubation taken as Ki of tightly bound complex, read-out: Ki following extended incubation
parameter.measured: pKi
Give only the number. pKi is defined as minus log10 of concentration in molar units.

Input: So what does the record say about pKi for CCC[C@H](NC(=O)[C@@H]1[C@H]2CCC[C@H]2CN1C(=O)[C@@H](NC(=O)[C@@H](NC(=O)c1cnccn1)C1CCCCC1)C(C)(C)C)C(=O)C(=O)NC1CC1 ?
Output: 7.43
